Would you mind telling me the reported viability, T/C of each entry?
System: 653999-131-R-J2-PDC complex spheroids, growth % test/control
test method notes: Anticancer human tumor 653999-131-R-J2-PDC patient-derived lung adenocarcinoma cell line growth inhibition [AhR]
experimental setup: second compound 3.16 µM; first compound 0.316 µM; stronger effect = lower value
Give bare numbers, in %.

Known viability, T/C results, listed for orientation:
O=C(c1cc(Cc2n[nH]c(=O)c3ccccc23)ccc1F)N1CCN(C(=O)C2CC2)CC1 + Cc1cncc(-c2nc(NCCc3c[nH]c4ccccc34)c3ncn(C(C)C)c3n2)c1 = 112
CC1COCCN1c1cc(C2(S(C)(=N)=O)CC2)nc(-c2ccnc3[nH]ccc23)n1 (stereo unspecified) + Cc1ccccc1N=Nc1ccc(NC(=O)c2ccnn2C)c(C)c1 = 92.8
CC1COCCN1c1cc(C2(S(C)(=N)=O)CC2)nc(-c2ccnc3[nH]ccc23)n1 (stereo unspecified) + Cc1cncc(-c2nc(NCCc3c[nH]c4ccccc34)c3ncn(C(C)C)c3n2)c1 = 112

Here are 3 molecules. What values of viability, T/C were reported for them?
1. CC(C)c1c(-c2ccccc2)nc2c(C#N)c[nH]n2c1=O + Cc1ccccc1N=Nc1ccc(NC(=O)c2ccnn2C)c(C)c1
2. COc1ccc([C@@H](O)c2cc(-c3ncnc4cc(N5CCOCC5)ccc34)c(F)cc2Cl)nn1 + Cc1cncc(-c2nc(NCCc3c[nH]c4ccccc34)c3ncn(C(C)C)c3n2)c1
3. O=C(C=Cc1cccc(S(=O)(=O)Nc2ccccc2)c1)NO + Cc1cncc(-c2nc(NCCc3c[nH]c4ccccc34)c3ncn(C(C)C)c3n2)c1

1: 107; 2: 138; 3: 95.1

----------
Test system: 653999-131-R-J2-PDC complex spheroids, growth % test/control
test method notes: Anticancer human tumor 653999-131-R-J2-PDC cell line growth inhibition [AhR];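 also: spheroids exposed to agents for seven days; 100% = DMSO vehicle control viability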
experimental setup: second compound 0.316 µM; first compound 0.316 µM; stronger effect = lower value
assay metric: viability, T/C

// worked examples, viability, T/C included
Nc1ncn(C2CC(O)C(CO)O2)c(=O)n1 (configuration not stated) + CC(CO)NC(=O)c1cc(-c2ccc(Cl)cc2)nn(-c2cnn(C)c2)c1=O = 91.3%
Nc1ccccc1NC(=O)c1ccc(CNC(=O)OCc2cccnc2)cc1 + Cc1ccccc1N=Nc1ccc(NC(=O)c2ccnn2C)c(C)c1 = 69%
COc1cccc2c1C(=O)c1c(O)c3c(c(O)c1C2=O)CC(O)(C(=O)CO)CC3OC1CC(N)C(O)C(C)O1 (configuration not stated) + CC(CO)NC(=O)c1cc(-c2ccc(Cl)cc2)nn(-c2cnn(C)c2)c1=O = 31.1%

Fill in viability, T/C for each of the 5 molecules listed.
1. COc1cc(Nc2ncc3c(n2)-c2ccc(Cl)cc2C(c2c(F)cccc2OC)=NC3)ccc1C(=O)O + CC(CO)NC(=O)c1cc(-c2ccc(Cl)cc2)nn(-c2cnn(C)c2)c1=O
2. CC(C)c1c(-c2ccccc2)nc2c(C#N)c[nH]n2c1=O + Cc1cncc(-c2nc(NCCc3c[nH]c4ccccc34)c3ncn(C(C)C)c3n2)c1
3. COc1cc(Nc2ncc3c(n2)-c2ccc(Cl)cc2C(c2c(F)cccc2OC)=NC3)ccc1C(=O)O + Cc1cncc(-c2nc(NCCc3c[nH]c4ccccc34)c3ncn(C(C)C)c3n2)c1
4. O=C(c1cc(Cc2n[nH]c(=O)c3ccccc23)ccc1F)N1CCN(C(=O)C2CC2)CC1 + CC(CO)NC(=O)c1cc(-c2ccc(Cl)cc2)nn(-c2cnn(C)c2)c1=O
5. NS(=O)(=O)OCC1CC(n2ccc3c(NC4CCc5ccccc54)ncnc32)CC1O (configuration not stated) + Cc1cncc(-c2nc(NCCc3c[nH]c4ccccc34)c3ncn(C(C)C)c3n2)c1

1. 74.8%
2. 120%
3. 66.6%
4. 96.1%
5. 106%
